- experimental.system: T1, soluble human insulin receptor-immunoglobulin heavy chain chimera (sIR-Fc) (human, UniProt P06213 28-956, limits assumed, Eu3+ (LANCE) label in the TR-FRET assays)
- T1 construct: extracellular domain; Construct of Bass et al., 1996; also called HIR-immunoglobulin heavy chain chimera; not shown: immunoglobulin heavy chain constant domains
- method.notes: FP on sIR-Fc, competitor FITC-RP9
endpoint.label: pIC50
Hey, just a heads up that pIC50 is the negative log base 10 of the concentration in molar.

In: Consider the binder shown here: S337 (C-terminal Lig′ joined to chemical linker 23, C-C dimer through chemical linker 23; also called (RP9-Lig)2-23) peptide 1: GSLDESFYDWFERQLGKKX peptide 2: GSLDESFYDWFERQLGKKX What is its recorded pIC50?
Out: 9.00

In: // lookup pIC50 for FHENFYDWFVRQVSKK (also called D117) [H2C]
Out: 7.30
